B1: CPEB3 Ribozyme (parent)
chain: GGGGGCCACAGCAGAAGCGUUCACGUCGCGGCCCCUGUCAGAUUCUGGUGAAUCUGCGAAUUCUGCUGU

# Variants of: B1
# test_details: self-cleavage, relative activity (ratio to wild type); higher = more cleavage; co-transcriptional
In this section, each of the variants is paired with its reported self-cleavage.
quantity: self-cleavage

mutation_annotation: U44C U49C
numeric_value: 0.83

mutation_annotation: G31A U44C
numeric_value: 0.749

mutation_annotation: C7A C34G
numeric_value: 0.136

mutation_annotation: G3C A8U
numeric_value: 0.123

mutation_annotation: C45G G68C
numeric_value: 1

mutation_annotation: U36C U69G
numeric_value: 1.02

mutation_annotation: G1A C18G
numeric_value: 0.0371
